# assayedSystem: kappa receptor (Cavia porcellus, UniProt P41144)
# Construct: guinea pig cortex for the kappa site; from tissue; host or cells: guinea pig cortex, frozen pellet fraction
# Sequence (P41144 whole entry): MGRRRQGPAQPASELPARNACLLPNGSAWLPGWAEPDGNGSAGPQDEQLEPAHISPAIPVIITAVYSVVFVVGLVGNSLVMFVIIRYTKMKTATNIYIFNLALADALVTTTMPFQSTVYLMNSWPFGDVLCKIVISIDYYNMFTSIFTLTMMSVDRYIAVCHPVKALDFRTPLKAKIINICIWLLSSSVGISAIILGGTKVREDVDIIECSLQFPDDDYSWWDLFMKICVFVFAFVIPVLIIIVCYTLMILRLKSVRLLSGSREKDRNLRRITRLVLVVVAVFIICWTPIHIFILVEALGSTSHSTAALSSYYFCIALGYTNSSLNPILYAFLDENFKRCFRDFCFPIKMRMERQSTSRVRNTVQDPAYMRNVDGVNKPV
# testMethodNotes: Opioid receptor binding displacement assay, kappa site (guinea pig cortex, 3H ligand)
# Set-up: species or system male Hartley guinea pigs
# measurementContext: read-out: Ki Kappa; guinea pig cortex, pH 7.4, 37° C., 45 minutes, mu and delta sites blocked (100 nM)
Counter-ions that a name gives are not always drawn.
readoutKind: pKi
In plain terms, pKi is the concentration in mol/L turned into minus its base-10 logarithm.

Looking up CC(C)CCCCN1CCC(C)(c2cccc(O)c2)C(C)C1 (stereo not shown) [Example 4, hydrochloride] , I see its pKi listed as 8.22

====

# assayedSystem: kappa receptor (Cavia porcellus, UniProt P41144)
# Construct: guinea pig cortex for the kappa site; from tissue; host or cells: guinea pig cortex, frozen pellet fraction
# testMethodNotes: Opioid receptor binding displacement assay, kappa site (guinea pig cortex, 3H ligand)
# Set-up: species or system male Hartley guinea pigs
# measurementContext: guinea pig cortex, pH 7.4, 37° C., 45 minutes, mu and delta sites blocked (100 nM); read-out: Ki Kappa
Where a name gives a salt, the structure may show the parent alone.
readoutKind: Ki (nM)
Numeric answer only, unit nM assumed.

Guide cases for Ki, answers given:
C[C@@H]1CN(CC[C@H](O)C2CCCCC2)CC[C@]1(C)c1cccc(O)c1    11.4
COC(CCN1CC[C@@](C)(c2cccc(O)c2)[C@@H](C)C1)C1CCCCC1 (relative stereo) [Example 31, hydrochloride]    3.82
C[C@H]1CN(CC[C@H](O)C2CCCCC2)CC[C@@]1(C)c1cccc(O)c1    2.02
C[C@H]1CN(CCC(O)c2ccccc2)CC[C@@]1(C)c1cccc(O)c1 (relative stereo) [Compound A, hydrochloride, reference compound]    22.7
C[C@H]1CN(CCC(O)C2CCCCC2)CC[C@@]1(C)c1cccc(O)c1 (relative stereo) [Example 27, hydrochloride]    5.04

Next, consider the following compound.
Notebook: C[C@H]1CN(CCc2ccccc2)CC[C@@]1(C)c1cccc(O)c1 (relative stereo) [Compound D, hydrochloride, reference compound] , Ki read as 51

====

# System: meal fed obese Zucker rats
# testMethodNotes: Food consumption assay in meal fed obese Zucker rats
# Type: in vivo
# measurementContext: Rattus norvegicus, sc, 4 h, amount to decrease food consumption 20% during first four hours
Where a name gives a salt, the structure may show the parent alone.
Each record here notes measured ED20.
Form entry: value (mg/kg) — number only.

// worked examples, ED20 included
CC(C)CCCCN1CC[C@](C)(c2cccc(O)c2)[C@H](C)C1 (stereo in doubt) [Example 29, hydrochloride]    0.31
CC(C)CCCN1CCC(C)(c2cccc(O)c2)C(C)C1 (stereo not drawn) [Example 15, hydrochloride]    3.65
C[C@H]1CN(CCCc2cccs2)CC[C@@]1(C)c1cccc(O)c1 (stereo in doubt)    0.05
CC(C)CCCCN1CC[C@@](C)(c2cccc(O)c2)[C@@H](C)C1 (stereo in doubt) [Example 28, hydrochloride]    0.12
C=CCN1CC[C@]23c4c5ccc(O)c4O[C@H]2C(=O)CC[C@@]3(O)[C@H]1C5 [Compound E, naloxone, reference compound]    1.4

Okay, now this molecule:
Entry C[C@H]1CN(CCC(=O)C2CCCC2)CC[C@@]1(C)c1cccc(O)c1 (relative stereo) [Example 17, hydrochloride] : ED20 on meal fed obese Zucker rats = 0.31

====

# assayedSystem: kappa receptor (Mus musculus)
# Construct: Five CF-1 male mice (Charles River, Portage, Mich.); from tissue; host or cells: whole living CF-1 male mice (in vivo)
# Sequence (P33534 whole entry): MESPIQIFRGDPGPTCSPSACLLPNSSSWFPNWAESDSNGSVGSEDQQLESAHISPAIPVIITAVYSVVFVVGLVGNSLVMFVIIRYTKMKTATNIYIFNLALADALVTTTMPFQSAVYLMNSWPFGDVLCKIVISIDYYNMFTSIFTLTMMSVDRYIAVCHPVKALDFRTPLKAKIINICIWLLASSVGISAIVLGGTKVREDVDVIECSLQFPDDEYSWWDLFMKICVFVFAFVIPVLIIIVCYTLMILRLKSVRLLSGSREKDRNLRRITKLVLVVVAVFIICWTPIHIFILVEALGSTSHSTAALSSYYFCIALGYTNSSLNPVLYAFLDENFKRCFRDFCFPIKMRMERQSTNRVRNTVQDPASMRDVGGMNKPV
# testMethodNotes: in vivo
# Set-up: species or system CF-1 male mice
# measurementContext: sc, read-out: Kappa AD50
Where a name gives a salt, the structure may show the parent alone.
Each record here notes measured log10(ED50).
Parameter value (number): base-10 log of ED50 in mg/kg.

Check out these entries, answers already filled in.
CC(C)CCCN1CCC(C)(c2cccc(O)c2)C(C)C1 (stereo not drawn) [Example 15, hydrochloride]    -1.05
CC1CN(CCC(C)(C)C)CCC1(C)c1cccc(O)c1 (stereo not drawn) [Example 12, hydrochloride]    -0.38
CC1CN(CCC2CCCCC2)CCC1(C)c1cccc(O)c1 (stereo not drawn) [Example 13, hydrochloride]    -0.92
CC(C)CCCCN1CCC(C)(c2cccc(O)c2)C(C)C1 (stereo not drawn) [Example 4, hydrochloride]    -0.64
C[C@@H]1CN(CC[C@@H](O)C2CCCCC2)CC[C@]1(C)c1cccc(O)c1    -0.28

We now examine a further compound.
compound CCCCCCN1CC[C@@](C)(c2cccc(O)c2)[C@@H](C)C1 (stereo in doubt) [Example 1, hydrochloride] , log10(ED50) observed: -0.66

====

# maps each entry to its ED50
# assayedSystem: kappa receptors (Rattus norvegicus)
# Construct: sixty male Long-Evans hooded rats; from tissue; host or cells: whole living male Long-Evans hooded rats (in vivo)
# Sequence (P34975 whole entry): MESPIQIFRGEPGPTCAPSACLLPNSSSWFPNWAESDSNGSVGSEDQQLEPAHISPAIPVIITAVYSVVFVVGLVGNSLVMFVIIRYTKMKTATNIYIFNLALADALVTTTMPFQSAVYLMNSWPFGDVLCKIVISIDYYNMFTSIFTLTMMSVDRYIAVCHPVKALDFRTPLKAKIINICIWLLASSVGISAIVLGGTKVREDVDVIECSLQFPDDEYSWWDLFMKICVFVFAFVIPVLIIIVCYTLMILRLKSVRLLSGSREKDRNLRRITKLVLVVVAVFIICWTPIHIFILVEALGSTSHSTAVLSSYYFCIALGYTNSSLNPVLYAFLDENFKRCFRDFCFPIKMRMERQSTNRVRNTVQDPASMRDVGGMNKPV
# testMethodNotes: Rat diuresis assay, antagonism of bremazocine-induced urination
# Type: in vivo, male Long-Evans hooded rats
# measurementContext: sc, 2 h, rats, s.c., urinary output reduced to 50% of effect of 0.08 mg/kg bremazocine alone, two hours after injection, read-out: AD50 Two Hours
Where a name gives a salt, the structure may show the parent alone.
Write it as a number; the unit mg/kg goes unstated.

Worked examples, 2 molecules total:
CC1CN(CC2CCCCC2)CCC1(C)c1cccc(O)c1 (stereo not drawn) [Example 10, hydrochloride]    14.9
C[C@H]1CN(CCC2C=CCC2)CC[C@@]1(C)c1cccc(O)c1 (relative stereo) [Example 7, hydrochloride]    1.3

Attention now turns to another entry.
The measured ED50 associated with CC(C)CCN1CCC(C)(c2cccc(O)c2)C(C)C1 (stereo not drawn) [Example 16, hydrochloride] reads 7.7

====

# assayedSystem: mu receptor (Rattus norvegicus, UniProt P33535)
# Construct: rat whole brain minus cerebellum for mu and delta sites; from tissue; host or cells: rat whole brain minus cerebellum, frozen pellet fraction
# Sequence (P33535 whole entry): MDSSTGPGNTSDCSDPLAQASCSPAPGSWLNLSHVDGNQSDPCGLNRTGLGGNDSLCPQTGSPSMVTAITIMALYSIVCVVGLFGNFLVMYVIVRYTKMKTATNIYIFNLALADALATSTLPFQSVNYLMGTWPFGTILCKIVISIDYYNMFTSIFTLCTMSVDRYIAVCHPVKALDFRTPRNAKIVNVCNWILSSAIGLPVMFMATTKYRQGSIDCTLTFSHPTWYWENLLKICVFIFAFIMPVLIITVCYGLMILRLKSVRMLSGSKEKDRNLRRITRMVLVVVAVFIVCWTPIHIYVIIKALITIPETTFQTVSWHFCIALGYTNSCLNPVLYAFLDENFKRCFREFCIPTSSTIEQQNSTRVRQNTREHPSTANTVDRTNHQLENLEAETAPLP
# testMethodNotes: Opioid receptor binding displacement assay, mu site (rat whole brain minus cerebellum, 3H ligand)
# Set-up: species or system Male Sprague Dawley rats
# measurementContext: rat brain minus cerebellum, pH 7.4, 37° C., 20 minutes; read-out: Ki Mu
Structures can show the parent of a compound that is named as a salt.
The compounds listed here are annotated with their Ki.
Supply the numeric figure in nM, leaving out any unit text.

Given item C[C@H]1CN(C)CC[C@@]1(C)c1cccc(O)c1 (relative stereo) [Compound B, hydrochloride, reference compound] , the value recorded as its Ki is 80

Noted for COC(CCN1CC[C@@](C)(c2cccc(O)c2)[C@@H](C)C1)C1CCCCC1 (relative stereo) [Example 31, hydrochloride] : its Ki reads 0.77

Please fill in: Ki reported for C[C@H]1CN(CCC(O)c2cccs2)CC[C@@]1(C)c1cccc(O)c1 (relative stereo) [Example 40, hydrochloride] = 0.5

====

# assayedSystem: kappa receptors (Rattus norvegicus)
# Construct: sixty male Long-Evans hooded rats; from tissue; host or cells: whole living male Long-Evans hooded rats (in vivo)
# testMethodNotes: Rat diuresis assay, antagonism of bremazocine-induced urination
# Format: in vivo, male Long-Evans hooded rats
# measurementContext: sc, 5 h, rats, s.c., urinary output reduced to 50% of effect of 0.08 mg/kg bremazocine alone, five hours after injection, read-out: AD50 Five Hours
# Protocol: As such, the compounds of the invention were also evaluated in a rat diuresis assay conducted according to the following procedure described by Leander et al. in Drug Development Research 4:421-427 (1984) in an effort to further establish the ability of the present compounds to block kappa receptors. […] The animals were then injected with various doses of the test compounds. […] Cumulative urine volumes were determined at designated time intervals, usually at 2 and 5 hr after injection. […]
Where a name gives a salt, the structure may show the parent alone.
readoutKind: ED50 (mg/kg)
Write it as a number; the unit mg/kg goes unstated.

Solved entries (count: 3):
CC1CN(CCc2cccs2)CCC1(C)c1cccc(O)c1 (centres unmarked) [Example 38, hydrochloride]    2
CC1CN(CCCc2ccsc2)CCC1(C)c1cccc(O)c1 (centres unmarked) [Example 41, hydrochloride]    1.9
CC(C)CCCN1CCC(C)(c2cccc(O)c2)C(C)C1 (centres unmarked) [Example 15, hydrochloride]    0.39

Consider C=C(C)CCCN1CCC(C)(c2cccc(O)c2)C(C)C1 (centres unmarked) [Example 3, hydrochloride] . Its measured ED50 is 0.39

Sure, the documented ED50 for C[C@H]1CN(CC[C@H](O)C2CCCCC2)CC[C@@]1(C)c1cccc(O)c1 is 0.38

The compound identified as CCCCCN1CCC(C)(c2cccc(O)c2)C(C)C1 (centres unmarked) [Example 14, hydrochloride] registered its ED50 at 0.69

ED50 reported for this compound CC(C)CCN1CCC(C)(c2cccc(O)c2)C(C)C1 (centres unmarked) [Example 16, hydrochloride] : 4.45

For this compound ( C[C@H]1CN(CCC(O)c2cccs2)CC[C@@]1(C)c1cccc(O)c1 (relative stereo) [Example 40, hydrochloride] ), measured ED50 is 1.44

Value of ED50 reported for the compound CCCCCCCN1CCC(C)(c2cccc(O)c2)C(C)C1 (centres unmarked) [Example 8, hydrochloride] is 3.33

GET /value?item= CC1CN(CCCC2CCCC2)CCC1(C)c1cccc(O)c1 (centres unmarked) [Example 9, hydrochloride] &field=ED50 returns 0.79

ED50 recorded for this compound, CC1CN(CCCC2CCCCC2)CCC1(C)c1cccc(O)c1 (centres unmarked) [Example 11, hydrochloride] , is 1.02

Short answer for C[C@H]1CN(CCCc2cccs2)CC[C@@]1(C)c1cccc(O)c1 (stereo in doubt) : ED50 was 1.65

CC(C)CCCCN1CCC(C)(c2cccc(O)c2)C(C)C1 (centres unmarked) [Example 4, hydrochloride] has a reported ED50 of 0.46

Record CC1CN(CCC2CCCC2)CCC1(C)c1cccc(O)c1 (centres unmarked) [Example 6, hydrochloride] , field ED50: 0.67
